tested on: CCRIS mutagenicity, Ames/micronucleus/aberration tests; assay: CCRIS mutagenicity studies; conditions: Test System: AMES SALMONELLA TYPHIMURIUM; Strain/Indicator: TA100; Metabolic Activation: NONE; Method: FLUCTUATION TEST
Calls of active or inactive are those of the source. The rule behind the calls is not given here.
Measured Endpoint: mutagenic call

1) ClC(Cl)Cl    inactive; negative
2) C[C@H](CCC(=O)O)[C@H]1CC[C@H]2[C@@H]3CC[C@@H]4C[C@H](O)CC[C@]4(C)[C@H]3C[C@@H](O)[C@]12C    inactive; negative
3) ClC(Cl)Br    inactive; negative
4) N#CC(Br)Br    inactive; negative

====

system: CCRIS mutagenicity, Ames/micronucleus/aberration tests; experiment: CCRIS mutagenicity studies; details: Test System: CHINESE HAMSTER V-79; Strain/Indicator: V-79/6-THIOGUANINE; Metabolic Activation: NONE; Method: STANDARD PLATE
The source made the active and inactive calls. How the calls were made is not given here.
Labels: t (active), f (inactive)

1) N[C@@H](CS)C(=O)O    f
2) [S]=[Pb]    t
3) c1ccc2c(c1)cc1c3c2ccc2cccc(c23)C2NC12 (stereo not given)    t
4) CC(=O)ON(C(C)=O)c1ccc(/C=C/c2ccccc2)cc1    t
5) CNC(=O)c1cccc2c(Nc3ccc(NS(C)(=O)=O)cc3OC)c3cccc(C)c3nc12    t

====

tested on: CCRIS mutagenicity, Ames/micronucleus/aberration tests; experiment: CCRIS mutagenicity studies; conditions: Test System: AMES SALMONELLA TYPHIMURIUM; Strain/Indicator: TA98; Metabolic Activation: NONE; Method: PREINCUBATION
Active and inactive are the calls of the source. The rule behind the calls is not given here.
Labels: active, inactive

1) Cc1c(C)c2c(N)c3ccccc3nc2c2ccccc12    active
2) COc1ccc(C(=O)Nc2ccccc2)cc1[N+](=O)[O-]    inactive
3) CCOCCCl    inactive
4) N[C@@H]1CCCCN1.[Cl][Pt][Cl]    active
5) ClC1=C(Cl)C2(Cl)C3C(Cl)C(Cl)CC3C1(Cl)C2(Cl)Cl (stereo not given)    inactive
6) CC(=O)N(O)c1ccc2ccccc2c1    inactive
7) CC(C)(N=O)[N+](=O)[O-]    active
8) C=CC(=O)OCC(Br)CBr (stereo not given)    inactive
9) CC(=O)CC(C)C    inactive
10) OCCN(CCO)CCO    inactive
11) CCCCCCCCO    inactive
12) CCCCC(CC)CO (stereo not given)    inactive
13) Cc1cc(N=Nc2ccccc2C)ccc1N    inactive
14) N[C@@H](Cc1c[nH]c2ccccc12)C(=O)O    inactive
15) O=C(O)c1cc([N+](=O)[O-])cc([N+](=O)[O-])c1    active

====

system: CCRIS mutagenicity, Ames/micronucleus/aberration tests; assay: CCRIS mutagenicity studies; conditions: Test System: AMES SALMONELLA TYPHIMURIUM; Strain/Indicator: TA98; Metabolic Activation: RAT, LIVER, S-9, AROCLOR 1254 (30%); Method: PREINCUBATION
Calls of active or inactive are those of the source. The rule behind the calls is not given here.
Labels: TRUE = active, FALSE = inactive

1. ClCc1ccccc1    FALSE
2. CC(C)(C)c1ccc(OCC2CO2)cc1 (stereo not drawn)    FALSE
3. CCc1cc(C(N)=S)ccn1    FALSE
4. COc1ccccc1O    FALSE
5. C=CC(=O)OCCCCCCOC(=O)C=C    FALSE
6. CN(C)c1ccc(N(C)C)cc1    FALSE
7. [O]=[Cr](=[O])([OH])[O][Cr](=[O])(=[O])[OH]    TRUE
8. Nc1c(Cl)cc(Cl)cc1Cl    FALSE

====

test system: CCRIS mutagenicity, Ames/micronucleus/aberration tests; assay: CCRIS mutagenicity studies; conditions: Test System: AMES SALMONELLA TYPHIMURIUM; Strain/Indicator: TA98; Metabolic Activation: NONE; Method: STANDARD PLATE
Calls of active or inactive are those of the source. No rule for the calls is given here.
Measured Endpoint: mutagenic call

1) CCOc1ccc(N=O)cc1    active; positive
2) O=C1CCC2(O)c3c(ccc(O)c31)-c1ccc(O)c3c1C2C1OC1C3=O (configuration not stated)    active; positive
3) CC1=C(/C=C/C(C)=C/C=C/C(C)=C/C=C/C=C(C)/C=C/C=C(\C)C=O)C(C)(C)CCC1    inactive; negative
4) ClCc1cc2cccc3ccc4cc5ccccc5c1c4c32    active; positive
5) CCN(CC)c1ccc(N=Nc2c(Cl)cc([N+](=O)[O-])cc2Cl)cc1    active; positive
6) Nc1ccc2ccc3cccc4ccc1c2c34    active; positive
7) CCC1(CC(=O)O)OCCc2c1[nH]c1c(C)cccc21 (configuration not stated)    inactive; negative
8) C/C=C/C=C/C=O    inactive; negative
9) COc1ccc(N)cc1    inactive; negative
10) CN1CCN(C2=Nc3cc(Cl)ccc3Nc3ccccc32)CC1    inactive; negative
11) OC1C=CC=CC1O (configuration not stated)    inactive; negative
12) COc1cc(N)c(C)cc1N    inactive; negative
13) O=[N+]([O-])c1ccc2ccc3ccccc3c2c1    active; positive
14) COc1c(C(C)(C)C)cc([N+](=O)[O-])c(C)c1[N+](=O)[O-]    inactive; negative
15) Nc1ccc2ccccc2c1N=Nc1ccccc1    inactive; negative
16) COCC1O[C@@H](O[C@@H]2C(COC)OC(OC)C(OC)C2OC)C(OC)C(OC)C1OC (some centres not stated)    inactive; negative
17) CCOC(=O)c1[nH]c2ccccc2c1N=Cc1cc(OC)c(OC)c(OC)c1    inactive; negative
18) C[C@@H]1CC[C@@]2(OC1)O[C@H]1CC3[C@@H]4CC=C5C[C@@H](O[C@@H]6O[C@H](CO)[C@@H](O[C@@H]7O[C@@H](C)[C@H](O)[C@@H](O)[C@H]7O)[C@H](O)[C@H]6O[C@@H]6O[C@@H](C)[C@H](O)[C@@H](O)[C@H]6O)CC[C@]5(C)[C@H]4CC[C@]3(C)[C@H]1[C@@H]2C (some centres not stated)    inactive; negative
19) O=C1C(=O)c2cccc3cccc1c23    active; positive
20) CCCCNc1snc2ccccc12    inactive; negative
21) Nc1ccc(N=Nc2ccc(-c3ccc(N=Nc4c(S(=O)(=O)O)cc5c(c4N)C(=O)/C(=N/Nc4ccccc4)C(S(=O)(=O)O)=C5)cc3)cc2)c(N)c1    inactive; negative
22) Clc1cccc2cc3ccccc3cc12    inactive; negative

====

system: CCRIS mutagenicity, Ames/micronucleus/aberration tests; test: CCRIS mutagenicity studies; settings: Test System: AMES SALMONELLA TYPHIMURIUM; Strain/Indicator: TA1537; Metabolic Activation: RAT, LIVER, S-9, PHENOBARBITAL AND 5,6-BENZOFLAVONE; Method: PREINCUBATION
The source made the active and inactive calls. The rule behind the calls is not given here.
Labels: active, inactive

1. CC1=CC(=O)c2c(O)cccc2C1=O    active
2. COC1=C(OC)C(=O)C(C/C=C(\C)CC/C=C(\C)CC/C=C(\C)CC/C=C(\C)CC/C=C(\C)CC/C=C(\C)CC/C=C(\C)CC/C=C(\C)CC/C=C(\C)CCC=C(C)C)=C(C)C1=O    inactive
3. COC(=O)C1=C(C)NC(COC(N)=O)=C(C(=O)OC(C)C)C1c1cccc(Cl)c1Cl (centres undefined)    inactive
4. CCCOC(C(=O)OC1CCN(C)CC1)(c1ccccc1)c1ccccc1    inactive

====

test system: CCRIS mutagenicity, Ames/micronucleus/aberration tests; test: CCRIS mutagenicity studies; conditions: Test System: AMES SALMONELLA TYPHIMURIUM; Strain/Indicator: TA98; Metabolic Activation: NONE; Method: STANDARD PLATE
The source made the active and inactive calls. How the calls were made is not given here.
Measured Endpoint: mutagenic call

1. COc1cccc2c1cc([N+](=O)[O-])c1c(C(=O)O)cc3c(c12)OCO3    inactive; negative
2. C[Si](C)(Cl)Cl    inactive; negative
3. CC[n+]1c(-c2ccccc2)c2cc(N)ccc2c2ccc(N)cc21    inactive; negative
4. COCCO    inactive; negative
5. ClC(Cl)Cl    active; positive
6. CC1(C)S[C@@H]2[C@H](NC(=O)Cc3ccccc3)C(=O)N2[C@H]1C(=O)O    inactive; negative
7. O=[N+]([O-])c1cc2ccc3cccc4ccc(c1)c2c34    active; positive
8. CCC(=O)OCC(=O)[C@@]1(OC(=O)CC)[C@H](C)C[C@H]2[C@H]3[C@H]([C@@H](O)C[C@@]21C)[C@@]1(C)C=CC(=O)C=C1C[C@H]3Cl    inactive; negative
9. Nc1nc(NO)c2[nH]cnc2n1    inactive; negative
10. Cc1cc(C)nc(SC(=O)OC(C)(C)C)n1    inactive; negative
11. O=C(O)c1oc([N+](=O)[O-])c(-c2ccccc2)c1-c1ccccc1    inactive; negative
12. COc1ccc2c3c(cccc13)OC([N+](=O)[O-])=C2    inactive; negative
